Answer each item with its documented growth at 0.1 µM.
# System: SK-MEL-28
# Experiment summary: Growth inhibition of human SK-MEL-28 cells assessed as cell growth at 10^-7 M by sulforhodamine B assay
# Format: functional
# Run conditions: read-out: Activity
Numbers only, in %.

Known results for compounds:
Chemical string | growth at 0.1 µM / %
CC(C)=CC(=O)O[C@@H]1CC(C)(C)C[C@H]2C3=CC[C@@H]4[C@@]5(C)CCC(=O)C(C)(C)[C@@H]5CC[C@@]4(C)[C@]3(C)CC[C@@]12C(=O)O | 99
C/C=C(/C)C(=O)O[C@@H]1CC(C)(C)C[C@H]2C3=CC[C@@H]4[C@@]5(C)CC[C@H](O)C(C)(C)[C@@H]5CC[C@@]4(C)[C@]3(C)CC[C@@]12C(=O)O | 88
CC1(C)C[C@@H](O)[C@]2(C(=O)O)CC[C@]3(C)C(=CC[C@@H]4[C@@]5(C)C/C(=C\C=C\c6ccccc6)C(=O)C(C)(C)[C@@H]5CC[C@]43C)[C@@H]2C1 | 102
CC(C)=CC(=O)O[C@@H]1CC(C)(C)C[C@H]2C3=CC[C@@H]4[C@@]5(C)CC[C@H](O)C(C)(C)[C@@H]5CC[C@@]4(C)[C@]3(C)CC[C@@]12C(=O)O | 100

From here, focus on the item given below.
Record C/C=C(/C)C(=O)O[C@@H]1CC(C)(C)C[C@H]2C3=CC[C@@H]4[C@@]5(C)CCC(=O)C(C)(C)[C@@H]5CC[C@@]4(C)[C@]3(C)CC[C@@]12C(=O)O / SK-MEL-28, growth at 0.1 µM recorded as 95

---

# System: SF-295
# Experiment summary: Growth inhibition of human SF295 cells assessed as cell growth at 10^-6 M by sulforhodamine B assay
# Assay type: functional
# Run conditions: read-out: Activity
Metric: growth at 1 µM (%)
Answers are plain numbers, in %.

Solved entries:
Compound | Metric | Result number
CC(C)=CC(=O)O[C@@H]1CC(C)(C)C[C@H]2C3=CC[C@@H]4[C@@]5(C)CC[C@H](O)C(C)(C)[C@@H]5CC[C@@]4(C)[C@]3(C)CC[C@@]12C(=O)O [Reduced Lantadene B] | growth at 1 µM | 59
CC1(C)C[C@@H](O)[C@]2(C(=O)O)CC[C@]3(C)C(=CC[C@@H]4[C@@]5(C)C/C(=C\C=C\c6ccccc6)C(=O)C(C)(C)[C@@H]5CC[C@]43C)[C@@H]2C1 | growth at 1 µM | 88
CC(C)=CC(=O)O[C@@H]1CC(C)(C)C[C@H]2C3=CC[C@@H]4[C@@]5(C)CCC(=O)C(C)(C)[C@@H]5CC[C@@]4(C)[C@]3(C)CC[C@@]12C(=O)O | growth at 1 µM | 63

Would you mind listing growth at 1 µM for each of the following compounds?
1. C/C=C(/C)C(=O)O[C@@H]1CC(C)(C)C[C@H]2C3=CC[C@@H]4[C@@]5(C)CCC(=O)C(C)(C)[C@@H]5CC[C@@]4(C)[C@]3(C)CC[C@@]12C(=O)O [LANTADENE A]
2. C/C=C(/C)C(=O)O[C@@H]1CC(C)(C)C[C@H]2C3=CC[C@@H]4[C@@]5(C)CC[C@H](O)C(C)(C)[C@@H]5CC[C@@]4(C)[C@]3(C)CC[C@@]12C(=O)O [Reduced Lantadene A]

**Result**
88
81
